Measured TP, listed per entry.
- Species on record: Rattus norvegicus
- method-summary: Open TG-GATES - Regimen: Daily Repeat
- Format: toxicity, organism-based, Sprague-Dawley
- Parameters: regimen Daily Repeat, gender Male, age 6 weeks
- cond: in vivo, po, 300 mg/kg, […], tissue Plasma, route gavage, dose level Middle, time 7 day
Mention the unit after the number when you answer.

COC1=CC(=O)C[C@@H](C)[C@]12Oc1c(Cl)c(OC)cc(OC)c1C2=O; 5.8 g/dL
NC(N)=Nc1nc(CSCCC(N)=NS(N)(=O)=O)cs1; 5.7 g/dL
CCOc1ccc(NC(=O)CC(C)O)cc1 (stereo not given); 5.9 g/dL

Need TP, item COc1ccc2[nH]c([S+]([O-])Cc3ncc(C)c(OC)c3C)nc2c1 (stereo not given)
5.8 g/dL

Same question for CCOC(=O)CCC(=O)O[C@H]1[C@H](O[C@@H]2[C@@H](C)[C@H](O[C@H]3C[C@@](C)(OC)[C@@H](O)[C@H](C)O3)[C@@H](C)C(=O)O[C@H](CC)[C@@](C)(O)[C@H](O)[C@@H](C)C(=O)[C@H](C)C[C@@]2(C)O)O[C@H](C)C[C@@H]1N(C)C [ERYTHROMYCIN ETHYLSUCCINATE] please.
5.5 g/dL

====

- Organism: Rattus norvegicus
- method-summary: Open TG-GATES - Regimen: Daily Repeat
- Format: toxicity, organism-based, Sprague-Dawley
- Parameters: regimen Daily Repeat, gender Male, age 6 weeks
- cond: in vivo, po, 1000 mg/kg, […], tissue Plasma, route gavage, dose level High, time 28 day
observation-type: AST (IU/L)
Your answer is read as IU/L, so omit the unit and give the number.

NC(N)=Nc1nc(CSCCC(N)=NS(N)(=O)=O)cs1; 62.4
COc1ccc2[nH]c([S+]([O-])Cc3ncc(C)c(OC)c3C)nc2c1 (stereo unspecified); 50.6
CCOC(=O)CCC(=O)O[C@H]1[C@H](O[C@@H]2[C@@H](C)[C@H](O[C@H]3C[C@@](C)(OC)[C@@H](O)[C@H](C)O3)[C@@H](C)C(=O)O[C@H](CC)[C@@](C)(O)[C@H](O)[C@@H](C)C(=O)[C@H](C)C[C@@]2(C)O)O[C@H](C)C[C@@H]1N(C)C [ERYTHROMYCIN ETHYLSUCCINATE]; 67.6
COC1=CC(=O)C[C@@H](C)[C@]12Oc1c(Cl)c(OC)cc(OC)c1C2=O; 55
CC(C)OC(=O)C(C)(C)Oc1ccc(C(=O)c2ccc(Cl)cc2)cc1 [FENOFIBRATE]; 132

Then this compound:
Item under review: CCOc1ccc(NC(=O)CC(C)O)cc1 (stereo unspecified) . Reported AST?
65

====

Item-by-item account of TG
- Species: Rattus norvegicus
- method-summary: Open TG-GATES - Regimen: Daily Repeat
- Type: toxicity, organism-based, Sprague-Dawley
- Parameters: regimen Daily Repeat, gender Male, age 6 weeks
- cond: in vivo, po, 0 mg/kg, […], tissue Plasma, route gavage, dose level Control, time 28 day
Value expressed in mg/dL; do not type the unit.

// solved cases for TG follow
COc1ccc2[nH]c([S+]([O-])Cc3ncc(C)c(OC)c3C)nc2c1 (centres undefined) [OMEPRAZOLE]; 104.8
CC(C)OC(=O)C(C)(C)Oc1ccc(C(=O)c2ccc(Cl)cc2)cc1 [FENOFIBRATE]; 117.8
CN1C(=O)CN=C(c2ccccc2)c2cc(Cl)ccc21 [DIAZEPAM]; 165.6

What value of TG has been recorded for this entry: CCOc1ccc(NC(=O)CC(C)O)cc1 (centres undefined) [BUCETIN]
155.6

====

- Species: Rattus norvegicus
- method-summary: Open TG-GATES - Regimen: Daily Repeat
- Type: toxicity, organism-based, Sprague-Dawley
- Parameters: regimen Daily Repeat, gender Male, age 6 weeks
- cond: in vivo, po, 300 mg/kg, […], tissue Plasma, route gavage, dose level Middle, time 7 day
observation-type: TG

CCOc1ccc(NC(=O)CC(C)O)cc1 (stereo not given); 131.2 mg/dL
COC1=CC(=O)C[C@@H](C)[C@]12Oc1c(Cl)c(OC)cc(OC)c1C2=O; 60 mg/dL
CCOC(=O)CCC(=O)O[C@H]1[C@H](O[C@@H]2[C@@H](C)[C@H](O[C@H]3C[C@@](C)(OC)[C@@H](O)[C@H](C)O3)[C@@H](C)C(=O)O[C@H](CC)[C@@](C)(O)[C@H](O)[C@@H](C)C(=O)[C@H](C)C[C@@]2(C)O)O[C@H](C)C[C@@H]1N(C)C [ERYTHROMYCIN ETHYLSUCCINATE]; 123.6 mg/dL

Requested read-out: TG. Entry: COc1ccc2[nH]c([S+]([O-])Cc3ncc(C)c(OC)c3C)nc2c1 (stereo not given)
124.8 mg/dL

Ok, now `NC(N)=Nc1nc(CSCCC(N)=NS(N)(=O)=O)cs1`
111.4 mg/dL

====

- Species on record: Rattus norvegicus
- method-summary: Open TG-GATES - Regimen: Daily Repeat
- Type: toxicity, organism-based, Sprague-Dawley
- Parameters: regimen Daily Repeat, gender Male, age 6 weeks
- cond: in vivo, po, 1000 mg/kg, […], route gavage, dose level High, time 28 day
# key: entry, value: TERMINAL_BW
Numeric only. Scale: g

NC(N)=Nc1nc(CSCCC(N)=NS(N)(=O)=O)cs1 [FAMOTIDINE]; 376.8
CCOc1ccc(NC(=O)CC(C)O)cc1 (stereo unspecified) [BUCETIN]; 402.4
CC(C)OC(=O)C(C)(C)Oc1ccc(C(=O)c2ccc(Cl)cc2)cc1 [FENOFIBRATE]; 320.8
CCOC(=O)CCC(=O)O[C@H]1[C@H](O[C@@H]2[C@@H](C)[C@H](O[C@H]3C[C@@](C)(OC)[C@@H](O)[C@H](C)O3)[C@@H](C)C(=O)O[C@H](CC)[C@@](C)(O)[C@H](O)[C@@H](C)C(=O)[C@H](C)C[C@@]2(C)O)O[C@H](C)C[C@@H]1N(C)C [ERYTHROMYCIN ETHYLSUCCINATE]; 358.6
COc1ccc2[nH]c([S+]([O-])Cc3ncc(C)c(OC)c3C)nc2c1 (stereo unspecified) [OMEPRAZOLE]; 351.8

Here is another compound to look at.
Please report the recorded TERMINAL_BW for COC1=CC(=O)C[C@@H](C)[C@]12Oc1c(Cl)c(OC)cc(OC)c1C2=O [GRISEOFULVIN] .
423.7

====

- Species: Rattus norvegicus
- method-summary: Open TG-GATES - Regimen: Single
- Format: toxicity, organism-based, Sprague-Dawley
- Parameters: regimen Single, gender Male, age 6 weeks
- cond: in vivo, po, 0 mg/kg, 3 h, tissue Plasma, route gavage, dose level Control
Overview of reported PL across a group of molecules:
Entry rule: numbers only, all in mg/dL.

Solved cases below.
CCOC(=O)CCC(=O)O[C@H]1[C@H](O[C@@H]2[C@@H](C)[C@H](O[C@H]3C[C@@](C)(OC)[C@@H](O)[C@H](C)O3)[C@@H](C)C(=O)O[C@H](CC)[C@@](C)(O)[C@H](O)[C@@H](C)C(=O)[C@H](C)C[C@@]2(C)O)O[C@H](C)C[C@@H]1N(C)C [ERYTHROMYCIN ETHYLSUCCINATE]; 140
COc1cc2c(c(OC)c1OC)-c1ccc(OC)c(=O)cc1[C@@H](NC(C)=O)CC2; 139.2

I'd like to know its PL. The molecule in question is CCOc1ccc(NC(=O)CC(C)O)cc1 (stereo not drawn)
143.4

====

# Lym values compiled below
- Species: Rattus norvegicus
- method-summary: Open TG-GATES - Regimen: Single
- Type: toxicity, organism-based, Sprague-Dawley
- Set-up: regimen Single, gender Male, age 6 weeks
- cond: in vivo, po, 30 mg/kg, 6 h, tissue Blood, route gavage, dose level Middle
# value in %; strip the unit string

Some compounds with known Lym results, for comparison:
CN(C)CCN(Cc1cccs1)c1ccccn1; 74.6
CN(C)CCCN1c2ccccc2CCc2ccccc21; 72.6
CC1=C(/C=C/C(C)=C/C=C/C(C)=C/CO)C(C)(C)CCC1; 77.8

Consider now this further compound.
Bench note: what Lym did `CN(C)CCCN1c2ccccc2CCc2ccc(Cl)cc21` show?
78.2

====

- Species on record: Rattus norvegicus
- method-summary: Open TG-GATES - Regimen: Single
- Assay type: toxicity, organism-based, Sprague-Dawley
- Set-up: regimen Single, gender Male, age 6 weeks
- cond: in vivo, po, 10 mg/kg, 9 h, tissue Liver, route gavage, dose level Low
observation-type: LIVER (g)
Give just the numeric value; g need not be written.

Some molecules with recorded LIVER:
CC1=C(/C=C/C(C)=C/C=C/C(C)=C/CO)C(C)(C)CCC1; 7.8
CN(C)CCCN1c2ccccc2CCc2ccccc21; 8.2
CC(C)OC(=O)C(C)(C)Oc1ccc(C(=O)c2ccc(Cl)cc2)cc1 [FENOFIBRATE]; 7
CN(C)CCCN1c2ccccc2CCc2ccc(Cl)cc21; 9

Please examine the following record next.
Record request: LIVER value, item `CN(C)CCN(Cc1cccs1)c1ccccn1`
7.8

Sourced from ChEMBL document CHEMBL3885861
